Target: LCAT (Homo sapiens)
Assay: DHE esterification acyltransferase assay with synthetic HDL (sHDL)
Format: biochemical
Design: 6x histidine-tag (C); made in house; host or cells: 293T cells (ATCC CRL-3216)
Details: DHE 50 µM, normalized against LCAT + DMSO
quantity name: Emax (%)

>>> measured_value("O=C1c2c(O)cc(O)cc2OC(c2ccc(O)c(O)c2)C1O (stereo not shown)")
211
>>> measured_value("CCOc1ccc(Cc2cc([C@@H]3O[C@H](CO)[C@@H](O)[C@H](O)[C@H]3O)ccc2Cl)cc1")
196
>>> measured_value("O=c1cc(-c2ccc(O)c(O)c2)oc2cc(O)cc(O)c12")
191
>>> measured_value("OC[C@H]1O[C@@](CO)(O[C@H]2O[C@H](CO)[C@@H](O)[C@H](O)[C@H]2O)[C@@H](O)[C@@H]1O")
176

###

Molecular target: LCAT (Homo sapiens)
Sequence (P04180 25-440): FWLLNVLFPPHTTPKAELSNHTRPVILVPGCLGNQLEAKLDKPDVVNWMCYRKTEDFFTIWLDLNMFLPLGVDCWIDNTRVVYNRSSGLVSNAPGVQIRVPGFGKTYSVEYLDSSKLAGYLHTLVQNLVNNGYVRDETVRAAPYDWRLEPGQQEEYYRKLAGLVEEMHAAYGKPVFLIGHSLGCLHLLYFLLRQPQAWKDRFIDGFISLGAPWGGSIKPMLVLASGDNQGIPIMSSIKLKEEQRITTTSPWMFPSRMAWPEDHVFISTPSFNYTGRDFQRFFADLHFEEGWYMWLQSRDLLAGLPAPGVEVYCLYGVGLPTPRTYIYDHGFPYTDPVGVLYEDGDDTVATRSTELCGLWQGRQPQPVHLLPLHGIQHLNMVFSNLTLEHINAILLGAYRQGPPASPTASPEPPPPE
Test: DHE esterification acyltransferase assay with synthetic HDL (sHDL)
Format: biochemical
Parameters: 6x histidine-tag (C); made in house; host or cells: 293T cells (ATCC CRL-3216)
Details: DHE 50 µM, PAM concentration varied
quantity name: increase of LCAT acyltransferase activity

>>> measured_value("OC[C@H]1O[C@@](CO)(O[C@H]2O[C@H](CO)[C@@H](O)[C@H](O)[C@H]2O)[C@@H](O)[C@@H]1O")
"roughly 100%"
>>> measured_value("CCOc1ccc(Cc2cc([C@@H]3O[C@H](CO)[C@@H](O)[C@H](O)[C@H]3O)ccc2Cl)cc1")
"roughly 100%"
>>> measured_value("Cc1ccc([C@@H]2O[C@H](CO)[C@@H](O)[C@H](O)[C@H]2O)cc1Cc1ccc(-c2ccc(F)cc2)s1")
"150%"
>>> measured_value("O=C1c2c(O)cc(O)cc2OC(c2ccc(O)c(O)c2)C1O (stereo not drawn)")
"roughly 100%"
>>> measured_value("O=c1cc(-c2ccc(O)c(O)c2)oc2cc(O)cc(O)c12")
"roughly 100%"

###

Target: LCAT (Homo sapiens)
Experiment: MUP based phospholipase assay
Assay type: biochemical
Set-up: 6x histidine-tag (C); made in house; host or cells: 293T cells (ATCC CRL-3216)
Conditions: MUP concentration varied; mean ± SEM
The following compounds are shown together with reported phospholipase Vmax values.
quantity name: phospholipase Vmax

>>> measured_value("OC[C@H]1O[C@@](CO)(O[C@H]2O[C@H](CO)[C@@H](O)[C@H](O)[C@H]2O)[C@@H](O)[C@@H]1O")
"8.79 ± 0.81 µM h^− 1"
>>> measured_value("O=c1cc(-c2ccc(O)c(O)c2)oc2cc(O)cc(O)c12")
"10.91 ± 1.50 µM h^− 1"
>>> measured_value("Cc1ccc([C@@H]2O[C@H](CO)[C@@H](O)[C@H](O)[C@H]2O)cc1Cc1ccc(-c2ccc(F)cc2)s1")
"15.70 ± 0.66 µM h^− 1"
>>> measured_value("O=C1c2c(O)cc(O)cc2OC(c2ccc(O)c(O)c2)C1O (stereo not drawn)")
"10.71 ± 0.49 µM h^− 1"
>>> measured_value("CCOc1ccc(Cc2cc([C@@H]3O[C@H](CO)[C@@H](O)[C@H](O)[C@H]3O)ccc2Cl)cc1")
"11.68 ± 1.15 µM h^− 1"
>>> measured_value("COC(=O)Nc1nc2ccc(C(=O)c3ccccc3)cc2[nH]1")
"7.95 ± 1.90 µM h^− 1"

###

Molecular target: LCAT (Homo sapiens, UniProt P04180)
Assay: DHE esterification acyltransferase assay with synthetic HDL (sHDL)
Format: biochemical
Set-up: 6x histidine-tag (C); made in house; host or cells: 293T cells (ATCC CRL-3216)
Conditions: DHE 50 µM, PAM concentration varied; mean ± SEM of triplicate; read-out: acyltransferase EC50
The following compounds are shown together with reported EC50 values.
quantity name: EC50

>>> measured_value("Cc1ccc([C@@H]2O[C@H](CO)[C@@H](O)[C@H](O)[C@H]2O)cc1Cc1ccc(-c2ccc(F)cc2)s1")
"80 nM"
>>> measured_value("CCOc1ccc(Cc2cc([C@@H]3O[C@H](CO)[C@@H](O)[C@H](O)[C@H]3O)ccc2Cl)cc1")
"80 nM"
>>> measured_value("O=c1cc(-c2ccc(O)c(O)c2)oc2cc(O)cc(O)c12")
"100 nM"
>>> measured_value("O=C1c2c(O)cc(O)cc2OC(c2ccc(O)c(O)c2)C1O (stereo not shown)")
"120 nM"

###

Biological target: LCAT (Homo sapiens, UniProt P04180)
Sequence (P04180 25-440): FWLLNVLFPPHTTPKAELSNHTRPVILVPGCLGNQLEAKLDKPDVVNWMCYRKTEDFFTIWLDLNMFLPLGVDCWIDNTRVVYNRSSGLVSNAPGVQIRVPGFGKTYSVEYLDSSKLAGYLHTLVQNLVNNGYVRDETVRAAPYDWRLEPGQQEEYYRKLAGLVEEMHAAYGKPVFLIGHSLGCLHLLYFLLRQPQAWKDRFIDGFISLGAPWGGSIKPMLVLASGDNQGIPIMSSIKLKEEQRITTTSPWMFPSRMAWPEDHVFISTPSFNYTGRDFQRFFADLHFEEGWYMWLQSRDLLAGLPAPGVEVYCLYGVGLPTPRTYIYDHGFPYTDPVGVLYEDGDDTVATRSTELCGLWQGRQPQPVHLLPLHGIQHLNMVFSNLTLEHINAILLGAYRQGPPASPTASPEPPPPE
Assay: DHE esterification acyltransferase assay with synthetic HDL (sHDL)
Assay type: biochemical
Parameters: 6x histidine-tag (C); made in house; host or cells: 293T cells (ATCC CRL-3216)
Conditions: kcat divided by Km, PAM 3 µM
The following compounds are shown together with reported acyltransferase efficiency values.
quantity name: acyltransferase efficiency (µM⁻¹ h⁻¹)

>>> measured_value("Cc1ccc([C@@H]2O[C@H](CO)[C@@H](O)[C@H](O)[C@H]2O)cc1Cc1ccc(-c2ccc(F)cc2)s1")
44.46
>>> measured_value("O=c1cc(-c2ccc(O)c(O)c2)oc2cc(O)cc(O)c12")
36.95
>>> measured_value("OC[C@H]1O[C@@](CO)(O[C@H]2O[C@H](CO)[C@@H](O)[C@H](O)[C@H]2O)[C@@H](O)[C@@H]1O")
38.88
>>> measured_value("O=C1c2c(O)cc(O)cc2OC(c2ccc(O)c(O)c2)C1O (stereo not drawn)")
22.69
>>> measured_value("CCOc1ccc(Cc2cc([C@@H]3O[C@H](CO)[C@@H](O)[C@H](O)[C@H]3O)ccc2Cl)cc1")
31.54
>>> measured_value("COC(=O)Nc1nc2ccc(C(=O)c3ccccc3)cc2[nH]1")
18.92
